All values here come from patent US20250179017A1.

Give IC50 for every item shown.
target: human EP2 (PTGER2) (Homo sapiens, UniProt P43116); construct: Cayman Chemical (Human EP2 Reporter Assay Kit); assay: EP2 antagonist assay (HEK-293 CNG membrane potential cAMP assay / 293T SEAP reporter assay, PGE2-stimulated); details: EP2 antagonist activity; concentration for 50% inhibition of signal compared to DMSO
Sequence (P43116 whole entry): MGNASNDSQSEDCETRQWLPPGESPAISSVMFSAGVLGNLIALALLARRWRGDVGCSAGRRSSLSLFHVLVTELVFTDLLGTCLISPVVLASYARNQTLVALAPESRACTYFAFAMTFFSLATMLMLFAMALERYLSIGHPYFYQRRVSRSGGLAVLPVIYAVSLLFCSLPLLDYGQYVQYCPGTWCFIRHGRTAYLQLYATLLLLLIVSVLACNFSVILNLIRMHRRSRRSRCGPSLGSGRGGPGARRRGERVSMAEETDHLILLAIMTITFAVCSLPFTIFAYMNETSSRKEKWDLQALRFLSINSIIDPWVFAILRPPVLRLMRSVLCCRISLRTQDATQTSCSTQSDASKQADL

Give measured IC50 for every item shown.
1. C[C@H](NC(=O)c1cc(-c2ccc(F)cc2)cc2ccn(Cc3ccc(-c4ccccc4)cc3)c12)c1ccc(C(=O)O)cc1
2. O=C(O)c1ccc(CNC(=O)c2cc(-c3ccc(F)cc3)cc3cnn(Cc4cccc(C(F)(F)F)c4)c23)cc1
3. C[C@H](NC(=O)c1cc(-c2ccc(F)c(F)c2)cc2ccn(Cc3ccc(C(F)(F)F)cc3)c12)c1ccc(C(=O)O)cc1
4. O=C(O)c1ccc(C2(NC(=O)c3ccc(-c4cc(F)cc(F)c4)c4ccn(Cc5ccc(C(F)(F)F)cc5)c34)CC2)cc1
5. Nc1ccccc1-c1cc(C(=O)NCc2ccc(C(=O)O)cc2)c2c(ccn2Cc2ccc(C(F)(F)F)cc2)c1
6. O=C(O)c1ccc(CNC(=O)c2ccc(Nc3ccccc3)c3ccn(Cc4ccc(C(F)(F)F)cc4)c23)cc1
7. O=C(O)c1ccc(CNC(=O)c2cc(-c3ccccc3)cc3ccn(Cc4ccc(C(F)(F)F)cc4)c23)cc1

Response:
1: < 0.1 µM; 2: < 0.1 µM; 3: < 0.1 µM; 4: 0.1 to 1 µM; 5: 0.1 to 1 µM; 6: < 0.1 µM; 7: < 0.1 µM

---

biological target: human EP2 (PTGER2) (Homo sapiens, UniProt P43116); construct: Cayman Chemical (Human EP2 Reporter Assay Kit); assay: EP2 antagonist assay (HEK-293 CNG membrane potential cAMP assay / 293T SEAP reporter assay, PGE2-stimulated); conditions: EP2 antagonist activity; concentration for 50% inhibition of signal compared to DMSO
Give IC50 for every item shown.

SMILES ENTRY | STUDY SYSTEM | ASSAY ENDPOINT | OBSERVED RESULT
C[C@H](NC(=O)c1cc(-c2ccc(F)cc2)cc2cnn(Cc3ccc(C(F)(F)F)cc3)c12)c1ccc(C(=O)O)cc1 | human EP2 (PTGER2) (Homo sapiens, UniProt P43116) | IC50 | < 100 nM

Give measured IC50 for every item shown.
1. O=C(O)c1ccc(CNC(=O)c2cc(-c3ccccc3O)cc3ccn(Cc4ccc(C(F)(F)F)cc4)c23)cc1
2. O=C(O)c1ccc(CNC(=O)c2cc(-c3ccccc3)cc3ccn(Cc4cccc(-c5ccccc5)c4)c23)cc1
3. O=C(O)c1ccc(C2(NC(=O)c3cc(-c4cc(F)cc(C(F)(F)F)c4)cc4ccn(Cc5ccc(C(F)(F)F)cc5)c34)CC2)cc1
4. O=C(O)c1ccc(CNC(=O)c2cc(-c3ccccc3)cc3ccn(Cc4ccc5ccccc5n4)c23)cc1
5. O=C(O)c1ccc(CNC(=O)c2cc(-c3ccc(F)cc3)cc3cnn(Cc4ccc(-c5ccc(F)cc5)cc4)c23)cc1

Response:
< 100 nM
< 100 nM
100 to 1000 nM
< 100 nM
< 100 nM

---

target: human EP4 (EP4R) (Homo sapiens); construct: Cayman Chemical (Human EP4 Reporter Assay Kit); assay: EP4 antagonist assay (HEK-293 CNG membrane potential cAMP assay / 293T SEAP reporter assay, PGE2-stimulated); settings: EP4 antagonist activity; concentration for inhibition of signal compared to DMSO
Sequence (P35408 whole entry): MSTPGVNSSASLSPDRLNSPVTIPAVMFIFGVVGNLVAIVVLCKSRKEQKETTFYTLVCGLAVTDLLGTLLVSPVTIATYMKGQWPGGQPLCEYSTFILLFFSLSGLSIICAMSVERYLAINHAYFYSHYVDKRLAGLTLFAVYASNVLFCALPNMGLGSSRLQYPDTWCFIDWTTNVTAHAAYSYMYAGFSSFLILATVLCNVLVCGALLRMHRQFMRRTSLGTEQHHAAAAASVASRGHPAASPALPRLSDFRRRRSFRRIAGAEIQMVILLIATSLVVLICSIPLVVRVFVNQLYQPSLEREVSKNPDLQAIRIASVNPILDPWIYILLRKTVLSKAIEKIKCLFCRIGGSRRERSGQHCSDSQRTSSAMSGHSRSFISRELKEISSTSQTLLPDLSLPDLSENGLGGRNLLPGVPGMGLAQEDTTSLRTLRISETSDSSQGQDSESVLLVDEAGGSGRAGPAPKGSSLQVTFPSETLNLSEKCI
pIC50: −log10 of the molar value.
ASSAY ENDPOINT: pIC50

Field: example entries. Status: answers known.
SMILES ENTRY | pIC50
O=C(O)c1ccc(CNC(=O)c2cc(-c3ccc(F)cc3)cc3ccn(Cc4ccc(C(F)(F)F)cc4)c23)cc1 | ≥ 7.00
C[C@@H](NC(=O)c1cc(-c2ccccc2)cc2cnn(Cc3cccc(C(F)(F)F)c3)c12)[C@H]1CC[C@H](C(=O)O)CC1 | ≥ 7.00

Give measured pIC50 for every item shown.
1. O=C(O)c1ccc(CNC(=O)c2cc(-c3ccc(F)cc3)cc3cnn(Cc4ccc(-c5ccccc5)cc4)c23)cc1
2. C[C@H](NC(=O)c1ccc(Nc2ccccc2)c2ccn(Cc3ccc(C(F)(F)F)cc3)c12)c1ccc(C(=O)O)cc1
3. O=C(O)c1ccc(C2(NC(=O)c3ccc(Nc4ccccc4)c4ccn(Cc5ccc(C(F)(F)F)cc5)c34)CC2)cc1
4. O=C(O)c1ccc(CNC(=O)c2cc(-c3ccc(F)c(F)c3)cc3ccn(Cc4ccc(-c5ccccc5)cc4)c23)cc1
5. C[C@H](NC(=O)c1cc(-c2ccc(F)cc2)cc2cnn(Cc3cccc(C(F)(F)F)c3)c12)c1ccc(C(=O)O)cc1

Response:
≥ 7.00
≥ 7.00
≥ 7.00
≥ 7.00
≥ 7.00

---

Give pIC50 for every item shown.
molecular target: human EP2 (PTGER2) (Homo sapiens, UniProt P43116); construct: Cayman Chemical (Human EP2 Reporter Assay Kit); test: EP2 antagonist assay (HEK-293 CNG membrane potential cAMP assay / 293T SEAP reporter assay, PGE2-stimulated); settings: EP2 antagonist activity; concentration for 50% inhibition of signal compared to DMSO
pIC50: −log10 of the molar value.

Field: example entries. Status: answers known.
COMPOUND | ASSAY ENDPOINT | OBSERVED RESULT
C[C@H](NC(=O)c1cc(-c2ccc(F)c(F)c2)cc2ccn(Cc3ccc(-c4ccccc4)cc3)c12)c1ccc(C(=O)O)cc1 [Example 207] | pIC50 | > 7.00
O=C(NC1CC2(C1)CC(C(=O)O)C2)c1cc(-c2ccccc2)cc2[nH]cc(Sc3ccc(C(F)(F)F)cc3)c12 (racemic) [Example 113] | pIC50 | > 7.00

Shift focus to the following entry.
Request: Which pIC50 value is on record for Cc1ccccc1-c1cc(C(=O)NCc2ccc(C(=O)O)cc2)c2c(ccn2Cc2ccc(C(F)(F)F)cc2)c1 [Example 92] ?
Response: > 7.00

---

Give IC50 for every item shown.
target: human EP2 (PTGER2) (Homo sapiens); construct: Cayman Chemical (Human EP2 Reporter Assay Kit); experiment: EP2 antagonist assay (HEK-293 CNG membrane potential cAMP assay / 293T SEAP reporter assay, PGE2-stimulated); settings: EP2 antagonist activity; concentration for 50% inhibition of signal compared to DMSO

Give measured IC50 for every item shown.
1. O=C(O)c1ccc(CNC(=O)c2ccc(N3CCOCC3)c3ccn(Cc4ccc(C(F)(F)F)cc4)c23)cc1
2. C[C@@H](NC(=O)c1cc(-c2ccccc2)cc2cnn(Cc3cccc(C(F)(F)F)c3)c12)[C@H]1CC[C@H](C(=O)O)CC1
3. O=C(O)c1ccc(CNC(=O)c2cc(-c3cccc(Cl)c3)cc3ccn(Cc4ccc(C(F)(F)F)cc4)c23)cc1
4. O=C(O)c1ccc(CNC(=O)c2cc(-c3ccccc3Cl)cc3ccn(Cc4ccc(C(F)(F)F)cc4)c23)cc1
5. C[C@H](NC(=O)c1cc(-c2ccc(F)cc2)cc2nnn(Cc3ccc(C(F)(F)F)cc3)c12)c1ccc(C(=O)O)cc1
6. NC(=O)c1cccc(-c2cc(C(=O)NCc3ccc(C(=O)O)cc3)c3c(ccn3Cc3ccc(C(F)(F)F)cc3)c2)c1
7. C[C@@H](NC(=O)c1cc(-c2ccc(F)c(F)c2)cc2ccn(Cc3ccc(C(F)(F)F)cc3)c12)c1ccc(C(=O)O)cc1

Response:
≥ 1000 nM
< 100 nM
< 100 nM
< 100 nM
< 100 nM
< 100 nM
≥ 1000 nM

---

target: human EP2 (PTGER2) (Homo sapiens, UniProt P43116); construct: Cayman Chemical (Human EP2 Reporter Assay Kit); test: EP2 antagonist assay (HEK-293 CNG membrane potential cAMP assay / 293T SEAP reporter assay, PGE2-stimulated); conditions: EP2 antagonist activity; concentration for 50% inhibition of signal compared to DMSO
Give IC50 for every item shown.

SMILES ENTRY | IC50
O=C(O)c1ccc(CNC(=O)c2cc(-c3ccc(F)cc3)cc3ccn(Cc4ccc5ccccc5n4)c23)cc1 | < 100 nM
CN(c1ccccc1)c1cc(C(=O)NCc2ccc(C(=O)O)cc2)c2c(ccn2Cc2ccc(C(F)(F)F)cc2)c1 | 100 to 1000 nM
O=C(O)c1ccc(CNC(=O)c2cc(-c3cc(F)cc(F)c3)cc3ccn(Cc4ccc(-c5ccccc5)cc4)c23)cc1 | < 100 nM
CC(C)(O)c1cccc(-c2cc(C(=O)NCc3ccc(C(=O)O)cc3)c3c(ccn3Cc3ccc(C(F)(F)F)cc3)c2)c1 | 100 to 1000 nM
O=C(O)c1ccc(C2(NC(=O)c3ccc(-c4ccccc4)c4ccn(Cc5ccc(C(F)(F)F)cc5)c34)CC2)cc1 | ≥ 1000 nM
O=C(O)c1ccc(C2(NC(=O)c3ccc(-c4cccc(C(F)(F)F)c4)c4ccn(Cc5ccc(C(F)(F)F)cc5)c34)CC2)cc1 | ≥ 1000 nM
N#Cc1cccc(Nc2ccc(C(=O)NC3(c4ccc(C(=O)O)cc4)CC3)c3c2ccn3Cc2ccc(C(F)(F)F)cc2)c1 | 100 to 1000 nM
C[C@H](NC(=O)c1cc(-c2ccc(F)cc2)cc2ccn(Cc3ccc4ccccc4c3)c12)c1ccc(C(=O)O)cc1 | < 100 nM

Give measured IC50 for every item shown.
1. O=C(O)c1ccc(CNC(=O)c2cc(-c3ccc(F)c(F)c3)cc3cnn(Cc4ccc5ccccc5c4)c23)cc1
2. O=C(O)c1ccc(C2(NC(=O)c3ccc(Nc4ccccc4)c4ccn(Cc5ccc(C(F)(F)F)cc5)c34)CC2)cc1
3. O=C(O)c1ccc(CNC(=O)c2cc(-c3cccnc3)cc3ccn(Cc4cccc(C(F)(F)F)c4)c23)cc1
4. C[C@H](NC(=O)c1cc(-c2ccc(F)c(F)c2)cc2cnn(Cc3ccc(C(F)(F)F)cc3)c12)c1ccc(C(=O)O)cc1
5. C[C@H](NC(=O)c1cc(-c2ccc(F)cc2)cc2ccn(Cc3ccc4ccccc4n3)c12)c1ccc(C(=O)O)cc1
6. N#Cc1cccc(-c2cc(C(=O)NCC34CC(C(=O)O)(C3)C4)c3c(Sc4ccc(C(F)(F)F)cc4)c[nH]c3c2)c1

Response:
1. < 100 nM
2. < 100 nM
3. 100 to 1000 nM
4. < 100 nM
5. < 100 nM
6. 100 to 1000 nM
